Target: cereblon (CRBN) (Homo sapiens, UniProt Q96SW2)
Assay: In vitro CRBN binding assay (AlphaScreen, competitive inhibition of the PROTAC assay)
Settings: Table 1; AlphaScreen, PROTAC Optimization Kit for BET Bromodomain-Cereblon Binding; read-out: Alpha IC50
pIC50: −log10 of the molar value.
MEASUREMENT_KIND: pIC50

Below, each entry is followed by its recorded pIC50 result.
O=C1CCC(c2cccc(NS(=O)(=O)c3cccc(NC(=O)c4cc(F)cc(F)c4F)c3)c2)C(=O)N1 (stereo not drawn) [AEV40158]	6.15
O=C1CCC(c2ccc3ncoc3c2)C(=O)N1 (stereo not drawn) [AEV40203]	5.74
CC(C)C(=O)Nc1cccc(C2CCC(=O)NC2=O)c1 (stereo not drawn) [AEV40024]	5.21
O=C1CCC(c2ccc3c(c2)OCCNC3=O)C(=O)N1 (stereo not drawn) [AEV40079]	5.61
Cc1ccc(NC(=O)NCc2cccc(Nc3cccc(C4CCC(=O)NC4=O)c3)c2)cc1Cl (stereo not drawn) [AEV40192]	5.49
Nc1cccc(C2CCC(=O)NC2=O)c1 (stereo not drawn) [AEV40029]	5.53

I. Cc1ccc(NC(=O)CCc2cccc(Nc3cccc(C4CCC(=O)NC4=O)c3)c2)cc1Cl (stereo not drawn) [AEV40185]
II. CS(=O)(=O)Nc1cccc(C2CCC(=O)NC2=O)c1 (stereo not drawn) [AEV40030]
Challenge: Form field 'greater pIC50' accepts I or II ; which applies? // respond with label for picked entry
Response given: I
(I: 5.36, II: 5.15)

* * *

System: MM.1S
Assay: Tumor cell viability, CCK-8 assay, MM.1S
Format: cell-based
Conditions: MM.1S (human multiple myeloma); compound treatment 1uM; 5 days
MEASUREMENT_KIND: Cell viability (% of control)

O=C1CCC(c2cccc(NS(=O)(=O)c3cccc(NC(=O)c4ccc(CCCCl)cc4)c3)c2)C(=O)N1 (stereo not shown)	10.5 % of control

Challenge: Report Cell viability (% of control) for CCCCCCc1ccc(C(=O)Nc2cccc(S(=O)(=O)Nc3cccc(C4CCC(=O)NC4=O)c3)c2)cc1 (stereo not shown) please.
Response given: 17.8 % of control

Challenge: Using the record for CCCCc1ccc(C(=O)Nc2cccc(S(=O)(=O)Nc3cccc(C4CCC(=O)NC4=O)c3)c2)cc1 (stereo not shown) , report its Cell viability (% of control).
Response given: 7.4 % of control

Challenge: I am curious: what Cell viability (% of control) value has been reported for CCCCCc1ccc(C(=O)Nc2cccc(S(=O)(=O)Nc3cccc(C4CCC(=O)NC4=O)c3)c2)cc1 (stereo not shown) ?
Response given: 15.3 % of control

* * *

Biological target: cereblon (CRBN) (Homo sapiens, UniProt Q96SW2)
Assay: In vitro CRBN binding assay (AlphaScreen, competitive inhibition of the PROTAC assay)
Settings: Table 1; AlphaScreen, PROTAC Optimization Kit for BET Bromodomain-Cereblon Binding; read-out: Alpha IC50
pIC50: −log10 of the molar value.
MEASUREMENT_KIND: pIC50

a. COc1cc(Cl)ccc1C(=O)Nc1cccc(C2CCC(=O)NC2=O)c1 (centres unmarked)
b. O=C1CCC(c2cccc(NS(=O)(=O)c3ccc4oc(=O)ccc4c3)c2)C(=O)N1 (centres unmarked)
c. O=C1CCC(c2cccc(NS(=O)(=O)c3cccc(Cl)c3Cl)c2)C(=O)N1 (centres unmarked)
d. O=C1CCC(c2cccc(Nc3cccc(NC(=O)C4(C(=O)Nc5ccc(F)cc5)CC4)c3)c2)C(=O)N1 (centres unmarked)
Challenge: Sort these compounds on pIC50 so the largest reading comes first. Use the labels to give the ranking in the order requested.
Response given: b, c, a, d

P. O=C1CCC(c2ccc(NS(=O)(=O)c3ccc(Cl)cc3)cc2)C(=O)N1 (centres unmarked)
Q. O=C1CCC(c2cccc(Nc3cccc(CCC(=O)N4CCS(=O)(=O)CC4)c3)c2)C(=O)N1 (centres unmarked)
R. O=C1CCC(c2cccc(NS(=O)(=O)c3ccc([N+](=O)[O-])cc3)c2)C(=O)N1 (centres unmarked)
Challenge: Please list these in order of increasing pIC50. Thank you! Answer with the labels in sequence, matching the requested order.
Response given: P, Q, R

* * *

Test system: RD
Test: Tumor cell viability, CCK-8 assay, RD
Assay type: cell-based
Conditions: RD (human rhabdomyosarcoma); compound treatment 1uM; 3 days
MEASUREMENT_KIND: Cell viability (% of control)

Some compounds with known Cell viability (% of control) results, for comparison:
CCCCCCCc1ccc(C(=O)Nc2cccc(S(=O)(=O)Nc3cccc(C4CCC(=O)NC4=O)c3)c2)cc1 (stereo not drawn) [AEV40204]	50.8 % of control
CCCCc1ccc(C(=O)Nc2cccc(S(=O)(=O)Nc3cccc(C4CCC(=O)NC4=O)c3)c2)cc1 (stereo not drawn) [AEV41012]	79.7 % of control
O=C1CCC(c2cccc(NS(=O)(=O)c3cccc(NC(=O)c4ccc(CCCCCCCl)cc4)c3)c2)C(=O)N1 (stereo not drawn) [AEV41048]	54.0 % of control
CCCCCCCCc1ccc(C(=O)Nc2cccc(S(=O)(=O)Nc3cccc(C4CCC(=O)NC4=O)c3)c2)cc1 (stereo not drawn) [AEV40264]	67.9 % of control
CCCCCCc1ccc(C(=O)Nc2cccc(S(=O)(=O)Nc3cccc(C4CCC(=O)NC4=O)c3)c2)cc1 (stereo not drawn) [AEV41083]	31.4 % of control

Challenge: Recorded Cell viability (% of control) for CCCCCc1ccc(C(=O)Nc2cccc(S(=O)(=O)Nc3cccc(C4CCC(=O)NC4=O)c3)c2)cc1 (stereo not drawn) [AEV41013] , please?
Response given: 30.0 % of control

Challenge: If you can, please state the reported Cell viability (% of control) value of O=C1CCC(c2cccc(NS(=O)(=O)c3cccc(NC(=O)c4ccc(CCCCCCl)cc4)c3)c2)C(=O)N1 (stereo not drawn) [AEV41047] .
Response given: 20.5 % of control

Challenge: Which Cell viability (% of control) is listed for O=C1CCC(c2cccc(NS(=O)(=O)c3cccc(NC(=O)c4ccc(CCCCl)cc4)c3)c2)C(=O)N1 (stereo not drawn) [AEV41004] ?
Response given: 78.6 % of control

Challenge: Quick one: Cell viability (% of control) of O=C1CCC(c2cccc(NS(=O)(=O)c3cccc(NC(=O)c4ccc(CCCCCl)cc4)c3)c2)C(=O)N1 (stereo not drawn) [AEV41005] ?
Response given: 28.7 % of control

* * *

System: MM.1R-LR
Test: Tumor cell viability, CCK-8 assay, MM.1R-LR
Type: cell-based
Details: MM.1R-LR (drug-resistant human multiple myeloma); compound treatment 1uM; 5 days
MEASUREMENT_KIND: Cell viability (% of control)

// worked examples, Cell viability (% of control) included
O=C1CCC(c2cccc(NS(=O)(=O)c3cccc(NC(=O)c4ccc(CCl)cc4)c3)c2)C(=O)N1 (stereo not drawn)	90.2 % of control
CCCCc1ccc(C(=O)Nc2cccc(S(=O)(=O)Nc3cccc(C4CCC(=O)NC4=O)c3)c2)cc1 (stereo not drawn)	56.7 % of control
O=C1CCC(c2cccc(NS(=O)(=O)c3cccc(NC(=O)c4ccc(Cl)cc4)c3)c2)C(=O)N1 (stereo not drawn)	78.4 % of control
CCCCCc1ccc(C(=O)Nc2cccc(S(=O)(=O)Nc3cccc(C4CCC(=O)NC4=O)c3)c2)cc1 (stereo not drawn)	55.2 % of control
O=C1CCC(c2cccc(NS(=O)(=O)c3cccc(NC(=O)c4ccc(CCCCCl)cc4)c3)c2)C(=O)N1 (stereo not drawn)	58.2 % of control
O=C1CCC(c2cccc(NS(=O)(=O)c3cccc(NC(=O)c4ccc(CCCl)cc4)c3)c2)C(=O)N1 (stereo not drawn)	79.9 % of control
CCCCCCc1ccc(C(=O)Nc2cccc(S(=O)(=O)Nc3cccc(C4CCC(=O)NC4=O)c3)c2)cc1 (stereo not drawn)	54.7 % of control
O=C1CCC(c2cccc(NS(=O)(=O)c3cccc(NC(=O)c4ccc(CCCCl)cc4)c3)c2)C(=O)N1 (stereo not drawn)	63.8 % of control

Challenge: Reported Cell viability (% of control), molecule Cc1ccc(C(=O)Nc2cccc(S(=O)(=O)Nc3cccc(C4CCC(=O)NC4=O)c3)c2)cc1 (stereo not drawn) : ____
Response given: 81.3 % of control

Challenge: // returns reported Cell viability (% of control) for input CCCCCCCc1ccc(C(=O)Nc2cccc(S(=O)(=O)Nc3cccc(C4CCC(=O)NC4=O)c3)c2)cc1 (stereo not drawn)
Response given: 49.4 % of control

Challenge: What measured Cell viability (% of control) goes with CCCCCCCCc1ccc(C(=O)Nc2cccc(S(=O)(=O)Nc3cccc(C4CCC(=O)NC4=O)c3)c2)cc1 (stereo not drawn) ?
Response given: 79.8 % of control

* * *

Biological target: cereblon (CRBN) (Homo sapiens, UniProt Q96SW2)
Test: In vitro CRBN binding assay (AlphaScreen, competitive inhibition of the PROTAC assay)
Details: Table 1; AlphaScreen, PROTAC Optimization Kit for BET Bromodomain-Cereblon Binding; read-out: Alpha IC50
MEASUREMENT_KIND: IC50 (nM)

Observe how each entry below is paired with its result.
O=C1CCC(c2cccc(NC(=O)c3ccccc3C(F)(F)F)c2)C(=O)N1 (centres unmarked) [AEV40180]	1130
O=C1CCC(c2cccc(NS(=O)(=O)c3cccc(NC(=O)c4ccc(CCCCl)cc4)c3)c2)C(=O)N1 (centres unmarked) [AEV41004]	1570

a. O=C1CCC(c2cccc(NC(=O)c3ccc(F)cc3)c2)C(=O)N1 (centres unmarked) [AEV40140]
b. CCc1ccc(S(=O)(=O)Nc2cccc(C3CCC(=O)NC3=O)c2)cc1 (centres unmarked) [AEV40046]
c. O=C1CCC(c2cccc(NCc3cccc(Oc4ccccc4)c3)c2)C(=O)N1 (centres unmarked) [AEV40121]
Challenge: Task for the reader: rank each entry by its IC50, from the minimum upward. Thanks in advance for listing the labels in the requested order.
Response given: b, a, c
(b: 1000 nM, a: 1830 nM, c: 3040 nM)
